The measured values listed here are drawn from PubChem BioAssay (Tox21).

Assay: Nuclear factor erythroid 2-related factor 2/antioxidant responsive element (Nrf2/ARE) small molecule agonists: qHTS cell viability counter screen in human keratinocytes (AID 1919968); further: nearly all actives have a fitted effect of over 55% in size
Conditions: KeratinoSens HaCaT ARE cells viability, CellTiter-Fluor, 24 h; series mostly up to 92.4 µM
Results filed as inconclusive are left out. Activity calls are given as the source filed them. The call rests on the fitted dose curve; in most records, active means well fitted cell-killing curve with a large enough effect in the repeat runs; inconclusive means weak or mixed curves, or effect the other way; inactive means flat fitted curve, though single readings scatter.
Assign a class; possible classes are 1 for active, 0 for inactive

Answered examples (8):
CC(C)OC(=O)C(O)(c1ccc(Cl)cc1)c1ccc(Cl)cc1 | 1
CC(CC(C(N)=O)(c1ccccc1)c1ccccc1)N(C)C (centres undefined) | 0
[As]#[In] | 0
CC(C)[C@H](C(=O)O[C@H](C#N)c1cccc(Oc2ccccc2)c1)c1ccc(Cl)cc1 | 0
COc1ccc2[nH]cc(CCN(C(C)C)C(C)C)c2c1 | 0
Cc1ccccc1C(=O)Nc1cccc(OC(C)C)c1 | 0
CCN[C@@H](C)Cc1ccccc1 | 0
Brc1ccccc1 | 0

Status in this test for BrCCCBr ? 0

Lookup CCCN 0

Lookup CCOP(=O)(SC(C)CC)N1CCSC1=O (centres undefined) 0

Lookup COc1cnc(OC)n2nc(NS(=O)(=O)c3c(OCC(F)F)cccc3C(F)(F)F)nc12 0

Lookup CC(=O)Nc1ccc2c(c1)Cc1ccccc1-2 0

Lookup O=[N+]([O-])c1ccc(CCl)cc1 0
